Target: P-gp (ABCB1) (Homo sapiens, UniProt P08183)
Sequence (P08183 whole entry): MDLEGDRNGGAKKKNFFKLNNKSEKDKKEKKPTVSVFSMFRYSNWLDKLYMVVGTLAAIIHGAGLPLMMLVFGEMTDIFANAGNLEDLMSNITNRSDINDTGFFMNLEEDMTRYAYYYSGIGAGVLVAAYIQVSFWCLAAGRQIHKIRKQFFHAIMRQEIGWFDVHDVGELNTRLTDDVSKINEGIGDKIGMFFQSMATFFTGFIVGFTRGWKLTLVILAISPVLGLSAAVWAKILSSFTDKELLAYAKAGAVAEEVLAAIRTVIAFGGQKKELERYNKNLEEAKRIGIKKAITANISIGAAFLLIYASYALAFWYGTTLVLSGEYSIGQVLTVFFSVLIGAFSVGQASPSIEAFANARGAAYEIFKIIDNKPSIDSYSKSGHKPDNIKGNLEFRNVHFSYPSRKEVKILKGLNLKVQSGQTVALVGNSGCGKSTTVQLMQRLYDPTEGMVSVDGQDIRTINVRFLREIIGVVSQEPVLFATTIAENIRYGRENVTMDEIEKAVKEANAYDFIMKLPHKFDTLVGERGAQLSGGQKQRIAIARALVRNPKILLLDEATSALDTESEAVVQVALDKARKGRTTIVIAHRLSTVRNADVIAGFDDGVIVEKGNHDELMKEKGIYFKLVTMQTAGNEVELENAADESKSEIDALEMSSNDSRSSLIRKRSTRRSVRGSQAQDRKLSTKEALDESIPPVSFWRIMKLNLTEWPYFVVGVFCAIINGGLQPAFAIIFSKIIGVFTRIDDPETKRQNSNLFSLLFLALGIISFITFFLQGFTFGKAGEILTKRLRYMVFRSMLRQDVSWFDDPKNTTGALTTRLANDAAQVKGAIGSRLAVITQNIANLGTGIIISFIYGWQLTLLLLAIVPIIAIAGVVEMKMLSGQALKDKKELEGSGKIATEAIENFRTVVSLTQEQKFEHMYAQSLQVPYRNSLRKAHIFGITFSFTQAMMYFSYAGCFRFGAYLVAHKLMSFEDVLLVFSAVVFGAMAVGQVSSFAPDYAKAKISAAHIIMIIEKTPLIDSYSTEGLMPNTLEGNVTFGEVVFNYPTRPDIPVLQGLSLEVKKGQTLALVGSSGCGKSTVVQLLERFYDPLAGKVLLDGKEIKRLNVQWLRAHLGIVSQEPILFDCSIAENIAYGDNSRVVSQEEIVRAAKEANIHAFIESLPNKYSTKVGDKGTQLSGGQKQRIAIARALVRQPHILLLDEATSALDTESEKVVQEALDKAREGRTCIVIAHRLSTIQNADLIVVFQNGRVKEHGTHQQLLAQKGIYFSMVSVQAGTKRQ
Assay: Substrate activity at P-gp (unknown origin) assessed as efflux ratio
Type: ADME
Details: not told
// values below are reported efflux ratio
Respond with the number and no other words.

Provide the documented efflux ratio with P-gp (ABCB1) (Homo sapiens, UniProt P08183) as the system for O=c1n(CCCN2C3CCC2CC(OCc2ccccc2F)C3)nc2n1CCC2 (centres undefined) 19.4

Same question for O=c1n(CCCN2C3CCC2CC(COc2ccccc2F)C3)nc2ccccn12 (centres undefined) please. 3.07

Cool, now O=c1n(CC(F)CN2C3CCC2CC(OCc2ccccc2F)C3)nc2ccccn12 (centres undefined) 1.27

Further cases:
Kindly state the measured efflux ratio obtained for O=c1n(CCCN2C3CCC2(F)CC(COc2ccccc2F)C3)nc2ccccn12 (racemic) with P-gp (ABCB1) (Homo sapiens, UniProt P08183). 1.34
